- System: WPMY1-TUBA1B-RELA
- procedure summary: phenotypically active (imaging signature differs from DMSO and reproducible) at any of 0.3-9 uM (binary (1 = active, 0 = inactive)); higher = active
- test settings: treatment time: 24 h
# key: entry, value: phenotypically active
Form field (numeric): enter value without unit.

Consider the reported phenotypically active for these compounds:
compound="Clc1ccc2nsnc2c1NC1=NCCN1 [tizanidine]" metric="phenotypically active" readout_value=0
compound="CN1C(=O)CC(c2ccccc2)C1=O (stereo not drawn) [phensuximide]" metric="phenotypically active" readout_value=0
compound="CC(C)NCC(O)COc1ccc(CC(N)=O)cc1 (stereo not drawn) [atenolol-()]" metric="phenotypically active" readout_value=0
compound="NS(=O)(=O)c1cc2c(cc1C(F)(F)F)NC(Cc1ccccc1)NS2(=O)=O (stereo not drawn) [bendroflumethiazide]" metric="phenotypically active" readout_value=0
compound="Clc1ccc2c(c1)C(N1CCNCC1)=Nc1ccccc1O2 [amoxapine]" metric="phenotypically active" readout_value=1

response.value for O=S(=O)(NCCCCCCc1ccccc1)c1cccc2c(Cl)cccc12 (field: phenotypically active) = 0

Query Cc1cc(C(=O)NNCc2ccccc2)no1 [isocarboxazid] yields phenotypically active of 0

Reported phenotypically active of CCCCCOC(=O)Nc1nc(=O)n([C@@H]2O[C@H](C)[C@@H](O)[C@H]2O)cc1F [capecitabine] : 0

Reported phenotypically active for C[N+](C)(C)CCOC(N)=O [Carbamoylcholine chloride] was 0

Measured phenotypically active, COc1ccc(CCc2nc3cc(-c4c(C)noc4C)ccc3n2C[C@H](C)N2CCOCC2)cc1Cl : 1

// field: phenotypically active; key: COc1cc([C@@H]2c3cc4c(cc3[C@@H](O[C@@H]3O[C@@H]5CO[C@@H](c6cccs6)O[C@H]5[C@H](O)[C@H]3O)[C@H]3COC(=O)[C@H]23)OCO4)cc(OC)c1O [teniposide] ; value = 1

phenotypically active reported for this compound O=C(O)[C@H]1O[C@@H](Oc2cc3oc(-c4ccccc4)cc(=O)c3c(O)c2O)[C@H](O)[C@@H](O)[C@@H]1O [Baicalin] : 0

Value of phenotypically active reported for the compound Cc1c2oc3c(C)ccc(C(=O)NC4C(=O)NC(C(C)C)C(=O)N5CCCC5C(=O)N(C)CC(=O)N(C)C(C(C)C)C(=O)OC4C)c3nc-2c(C(=O)NC2C(=O)NC(C(C)C)C(=O)N3CCCC3C(=O)N(C)CC(=O)N(C)C(C(C)C)C(=O)OC2C)c(N)c1=O (stereo not drawn) [Actinomycin D] is 1
